assay method text: ACEA_ER_AUC_viability: ACEA Biosciences xCELLigence Real-Time Cell Analysis on Estrogen Receptor Agonism for Viability (AID 2283782);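 also: continuous compound exposure with impedance area under curve over 80 h; hit means loss of impedance signal meaning reduced cell growth or viability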
Description: ACEA_ER is a cell-based, single-readout assay that uses T47D, a human breast cell line, with measurements taken at 80 hours after chemical dosing in a 96-well plate, although TO2 (mc0.srcf) used a 384-well plate. Differences in plate size can be ignored given data normalization.ACEA_ER_AUC_viability is one of two assay component(s) measured or calculated from the ACEA_ER assay. […]
Results filed as inconclusive are left out. Activity calls are given as the source filed them. The calls were made as follows: active = hit-call score of the fitted dose curve at least 0.9, where 1 is the maximum; inconclusive = response in the unintended direction; inactive = score below 0.9.
Select the correct class. Options are y = active, n = inactive and nothing else.

Worked examples follow.
1. CCOc1ccc(NC(C)=O)cc1 :: n
2. CC(O)COCC(C)O (stereo not given) :: n
3. CC/C=C/CCCCCCCCCCOC(C)=O :: n

-- ask What was the test verdict on CCC(=O)OC(C)(C)C1CC=C(C)CC1 (stereo not given) ?
-- reply n

-- ask What was the test verdict on CCCCCCCCCCCCOCCOS(=O)(=O)O ?
-- reply y

-- ask What was the test verdict on CC(C)(O)CCc1ccccc1 ?
-- reply n

-- ask What was the test verdict on CCC(C)C1CCCCC1=O (stereo not given) ?
-- reply n

-- ask What was the test verdict on CC(C)CCOC(=O)CC(C)C ?
-- reply n

-- ask What was the test verdict on CCCCC(CC)COCCO (stereo not given) ?
-- reply n

-- ask What was the test verdict on CCOC(=O)C(=O)OCC ?
-- reply n

-- ask What was the test verdict on C=C1CC/C=C(\C)CC[C@@H]2[C@@H]1CC2(C)C ?
-- reply n

-- ask What was the test verdict on C=CC(=O)OCC(CO)(COC(=O)C=C)COC(=O)C=C ?
-- reply y

-- ask What was the test verdict on CCO[Si](CCC#N)(OCC)OCC ?
-- reply n

-- ask What was the test verdict on O=C(OCc1ccccc1)c1ccccc1O ?
-- reply y

-- ask What was the test verdict on O=C(C=Cc1ccccc1)OCCCc1ccccc1 ?
-- reply y

----------
system under test: Transcription factor Sp1 (Homo sapiens)
assay method text: ATG_Sp1_CIS: Attagene CIS-FACTORIAL HepG2 Assay for human Specificity Protein 1 (Sp1) (AID 2282961)
experimental parameters: HepG2 Sp1 cis-reporter transcription, actives raise or lower the signal
Active and inactive are the calls of the source. The calls were made as follows: active = hit-call score of the fitted dose curve at least 0.9, where 1 is the maximum; inactive = score below 0.9.
measure name: outcome

1) CC/C(=C(\c1ccccc1)c1ccc(OCCN(C)C)cc1)c1ccccc1 :: inactive
2) O=C(O)c1cccc(Cl)n1 :: inactive
3) OCCN1CCOCC1 :: inactive
4) CC(O)COCC(C)O (stereo not drawn) :: inactive
5) N#CCCCC(C#N)CCC#N (stereo not drawn) :: inactive

Lab note: each molecule below needs its outcome filled in.
1. CC(C)Cc1ccc(C(C)C(=O)O)cc1 (stereo not drawn)
2. CCCCCCCCSCc1cc(C)c(O)c(CSCCCCCCCC)c1
3. C=C(C)C(=O)OCCC(C)OC(=O)C(=C)C (stereo not drawn)

-- reply
["inactive", "inactive", "inactive"]

Lab note: each molecule below needs its outcome filled in.
1. CCCCOCCOC(=O)c1ccccc1C(=O)OCCOCCCC
2. c1ccc2c(c1)-c1ccc3ccc4cccc5cc-2c1c3c45
3. CC1=CC(C)C(C=O)C(C)C1 (stereo not drawn) (tested in a mixture with another compound)
4. CCC(C)(C)C1CCC(OC)CC1 (stereo not drawn)

-- reply
1. inactive
2. inactive
3. inactive
4. inactive

Looking up CCCO[Si](OCCC)(OCCC)OCCC , I see its outcome listed as inactive
